Where do the numbers come from? From patent US10654815B2.

Each entry below carries its recorded log10 IC50.
biological target: PD-1/PD-L1 binding (UniProt Q9NZQ7); construct: fused on or other part: human IgG Fc (hFc tag) fused to PD-L1; assay: In-vitro PD-1/PD-L1 binding inhibition (HTRF); conditions: His-PD-1 100 nM, PD-L1-Fc 2 nM final, read-out: IC50 on inhibiting PD-1/PD-L1 binding in-vitro
READOUT_TYPE: log10 IC50 (log10 of the value in nM)

>>> endpoint_result("Cc1cc(CNCCNC(=O)NCCN2CCOCC2)c(OCc2cncc(C#N)c2)cc1OCc1cccc(-c2ccc3c(c2)OCCO3)c1C#N [Compound I-8]")
1.79
>>> endpoint_result("Cc1c(COc2ccc(CNCCNC(=O)NCCO)c(OCc3cccc(C#N)c3)c2)cccc1-c1ccccc1 [Compound I-2]")
2.76
>>> endpoint_result("Cc1cc(CNCCNC(=O)NCCN(C)C)c(OCc2cncc(C#N)c2)cc1OCc1cccc(-c2ccc3c(c2)OCCO3)c1C#N [Compound I-11]")
1.88
>>> endpoint_result("Cc1cc(CNCCOCCNC(=O)NCCN(C)C)c(OCc2cncc(C#N)c2)cc1OCc1cccc(-c2ccc3c(c2)OCCO3)c1C#N [Compound I-10]")
1.87
>>> endpoint_result("Cc1cc(CNCCNC(=O)N[C@@H](CO)C(=O)O)c(OCc2cncc(C#N)c2)cc1OCc1cccc(-c2ccc3c(c2)OCCO3)c1C#N [Compound I-13]")
1.20
>>> endpoint_result("Cc1c(COc2ccc(CNCCNC(=O)N[C@@H](COC(C)(C)C)C(=O)OC(C)(C)C)c(OCc3cccc(C#N)c3)c2)cccc1-c1ccccc1 [Compound I-3]")
3.49
